All figures here come from patent US20050009812A1.

MBR (Rattus norvegicus, UniProt P16257) pKi data
Please treat pKi as minus the base-10 logarithm of the molar concentration.

# item_smiles, assay_system, pKi
records = [
    ("Clc1ccc(Cl)c(Cc2nnnn2-c2cccc(Cl)c2Cl)c1", "MBR (Rattus norvegicus, UniProt P16257)", 10.10),
]

Give MBR (Rattus norvegicus, UniProt P16257) pKi for the following compound: Clc1cccc(-c2nnnn2Cc2cc(Cl)ccc2OCc2ccccc2)c1
9.14

Give MBR (Rattus norvegicus, UniProt P16257) pKi for the following compound: O=C(NCc1cc(F)ccc1OCc1ccccc1)c1cccc(Cl)c1Cl
9.66

Give MBR (Rattus norvegicus, UniProt P16257) pKi for the following compound: Fc1cccc(Cl)c1Cn1nnnc1-c1ccccc1C(F)(F)F
8.48

Give MBR (Rattus norvegicus, UniProt P16257) pKi for the following compound: Clc1cccc(Cc2nnnn2-c2cccc(Cl)c2Cl)c1Cl
9.80
